# measuredTarget: PI3Kδ (p110δ/p85α) Recombinant Human Protein (Homo sapiens (Human), UniProt O00329)
# Sequence (O00329 whole entry): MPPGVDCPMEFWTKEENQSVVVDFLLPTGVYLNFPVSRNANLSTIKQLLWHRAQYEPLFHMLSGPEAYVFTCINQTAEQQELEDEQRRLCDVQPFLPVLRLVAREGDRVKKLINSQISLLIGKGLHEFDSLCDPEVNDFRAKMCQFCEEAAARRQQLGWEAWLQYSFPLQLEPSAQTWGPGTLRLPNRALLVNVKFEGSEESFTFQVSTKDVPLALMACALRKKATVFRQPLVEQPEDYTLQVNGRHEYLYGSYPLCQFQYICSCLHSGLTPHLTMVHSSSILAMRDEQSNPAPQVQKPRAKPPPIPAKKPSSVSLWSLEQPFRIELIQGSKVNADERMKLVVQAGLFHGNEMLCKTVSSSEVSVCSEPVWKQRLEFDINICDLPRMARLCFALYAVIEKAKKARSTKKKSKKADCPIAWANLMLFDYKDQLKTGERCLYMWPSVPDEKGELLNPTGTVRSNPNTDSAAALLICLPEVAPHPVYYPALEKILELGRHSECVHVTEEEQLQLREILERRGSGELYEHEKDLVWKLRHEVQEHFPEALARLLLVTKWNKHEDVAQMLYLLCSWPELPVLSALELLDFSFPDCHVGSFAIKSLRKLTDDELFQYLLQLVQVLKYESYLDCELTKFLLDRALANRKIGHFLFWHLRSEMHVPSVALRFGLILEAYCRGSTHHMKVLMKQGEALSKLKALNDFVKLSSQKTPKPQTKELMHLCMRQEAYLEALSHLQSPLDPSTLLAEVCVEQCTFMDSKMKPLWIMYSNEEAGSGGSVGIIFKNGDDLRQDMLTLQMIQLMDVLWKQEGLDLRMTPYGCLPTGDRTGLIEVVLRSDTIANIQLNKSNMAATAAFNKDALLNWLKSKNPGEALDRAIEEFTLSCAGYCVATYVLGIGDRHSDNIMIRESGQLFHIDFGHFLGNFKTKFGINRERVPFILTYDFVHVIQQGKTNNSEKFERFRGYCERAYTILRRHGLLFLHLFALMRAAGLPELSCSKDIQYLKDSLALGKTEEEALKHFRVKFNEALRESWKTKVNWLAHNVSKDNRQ
# Sequence (P27986 whole entry partner): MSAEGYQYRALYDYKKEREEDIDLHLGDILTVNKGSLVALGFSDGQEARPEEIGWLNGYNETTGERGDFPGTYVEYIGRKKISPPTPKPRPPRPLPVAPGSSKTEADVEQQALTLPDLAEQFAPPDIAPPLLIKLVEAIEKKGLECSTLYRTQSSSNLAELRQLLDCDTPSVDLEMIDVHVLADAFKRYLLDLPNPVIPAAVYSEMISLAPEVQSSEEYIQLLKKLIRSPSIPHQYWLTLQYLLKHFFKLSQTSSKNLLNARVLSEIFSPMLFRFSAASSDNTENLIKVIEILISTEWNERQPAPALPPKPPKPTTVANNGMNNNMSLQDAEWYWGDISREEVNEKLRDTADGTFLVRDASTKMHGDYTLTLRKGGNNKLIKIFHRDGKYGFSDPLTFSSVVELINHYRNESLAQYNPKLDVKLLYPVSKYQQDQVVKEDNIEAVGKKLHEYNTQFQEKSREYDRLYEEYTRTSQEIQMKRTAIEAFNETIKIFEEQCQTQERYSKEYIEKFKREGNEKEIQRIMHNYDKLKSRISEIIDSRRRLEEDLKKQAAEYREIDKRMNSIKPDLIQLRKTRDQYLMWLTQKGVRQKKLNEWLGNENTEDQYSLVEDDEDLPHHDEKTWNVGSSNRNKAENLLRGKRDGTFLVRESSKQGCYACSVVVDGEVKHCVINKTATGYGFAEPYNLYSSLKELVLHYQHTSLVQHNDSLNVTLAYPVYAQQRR
# runDescription: PI3Kδ scintillation proximity assay
# Format: biochemical
# conditionNotes: 20 μM PIP2, 2 μM ATP, 3.4 nM PI3Kδ, 120 min, room temperature; read-out: PI3Kδ IC50
Structures can show the parent of a compound that is named as a salt.
IC50 values, listed per item

Requested read-out: IC50. Entry: Cc1ccc(C(O)(C(N)=O)C(F)(F)F)cc1-c1cnc2c(N)nc(C(=O)NC3(C)CCOC3C)cn12 (stereo not shown) [Example 84, trifluoroacetate]
100 to 500 nM

Which value of IC50 has been reported for CNC(=O)C1CC1c1cn2c(-c3cc(C(C)(O)C(F)F)ccc3C)cnc2c(N)n1 (stereo not shown) [Example 76] in the records?
100 to 500 nM

For the molecule Cc1ccc(C(C)(O)C(F)F)cc1-c1cnc2c(N)nc(-c3cnn(C4(CC#N)CN(C(=O)C5CCC5)C4)c3)cn12 (stereo not shown) [Example 100] , what IC50 is on record?
100 to 500 nM

Requested read-out: IC50. Entry: Cc1ccc(C(C)(O)C(F)F)cc1-c1cnc2c(N)nc(-c3cncnc3)cn12 (stereo not shown) [Example 32]
500 to 2000 nM

----------
# Test system: Phosphorylated Ribosomal Protein S6 (RPS6) in THP-1 cells
# runDescription: THP-1 RPS6 ELISA assay
# Format: cell-based, Human
# conditionNotes: THP-1 cells, serum starved, 2 h compound, 10 nM MCP-1 for 15 min, phospho-RPS6 ELISA; read-out: PI3Kγ_THP1_RPS6_ELISA IC50
IC50 by entry:

Would you please look over these solved cases?
Cc1ccc(C(C)(O)C(F)F)cc1-c1cnc2c(N)nc(C(F)(F)F)cn12 (single isomer, unassigned) [Example 26] :: 500 to 1000 nM
CNCCC(O)(c1ccc(C)c(-c2cnc3c(N)nc(C(F)(F)F)cn23)c1)C(F)(F)F (single isomer, unassigned) [Example 15] :: 100 to 500 nM
Cc1ccc(C(O)(CO)C(F)(F)F)cc1-c1cnc2c(N)nc(C(F)(F)F)cn12 (single isomer, unassigned) [Example 72] :: < 100 nM
Cc1ccc(C(O)(CO)C(F)(F)F)cc1-c1cnc2c(N)nc(C(F)(F)F)cn12 (single isomer, unassigned) [Example 73] :: 500 to 1000 nM
CNCCC(O)(c1ccc(C)c(-c2cnc3c(N)nc(C(F)(F)F)cn23)c1)C(F)(F)F (single isomer, unassigned) [Example 16] :: 500 to 1000 nM

Turning now to a further compound:
API: value(readout=IC50, system=Phosphorylated Ribosomal Protein S6 (RPS6) in THP-1 cells) for record Cc1ccc(C(C)(O)C(F)F)cc1-c1cnc2c(N)nc(-c3ccnc(CO)c3)cn12 (single isomer, unassigned) [Example 45]
100 to 500 nM

----------
# measuredTarget: PI3Kδ (p110δ/p85α) Recombinant Human Protein (Homo sapiens (Human), UniProt O00329)
# runDescription: PI3Kδ scintillation proximity assay
# Format: biochemical
# conditionNotes: 20 μM PIP2, 2 μM ATP, 3.4 nM PI3Kδ, 120 min, room temperature; read-out: PI3Kδ IC50
Counter-ions that a name gives are not always drawn.
endpointName: IC50

Examples with their reported IC50 follow.
COC(=O)c1cn2c(-c3cc(C(C)(O)C(F)(F)F)ccc3C)cnc2c(N)n1 (centres unmarked) :: 500 to 2000 nM
Cc1ccc(C(C)(O)C(F)F)cc1-c1cnc2c(N)nc(N3CCC(C#N)CC3)cn12 (centres unmarked) :: 500 to 2000 nM
Cc1ccc(C(C)(O)C(F)F)cc1-c1cnc2c(N)nc(-c3ccnn3C)cn12 (single isomer, unassigned) [Example 30] :: 100 to 500 nM
Cc1nc(N)c2ncc(-c3cc(C(O)(C(F)F)C(F)F)ccc3C)n2n1 [Example 112, trifluoroacetate salt] :: 500 to 2000 nM
Cc1ccc(C(C)(O)C(F)F)cc1-c1cnc2c(N)nc(-c3ccn(C)n3)cn12 (centres unmarked) :: 100 to 500 nM
Cc1ncc(-c2cn3c(-c4cc(C(C)(O)C(F)F)ccc4C)cnc3c(N)n2)s1 (centres unmarked) :: < 100 nM

Need IC50 of Cc1ccc(C(C)(O)C(F)F)cc1-c1cnc2c(N)nc(-c3cnn(C)c3)cn12 (centres unmarked) , thanks.
< 100 nM

Consider the compound [2H]C([2H])([2H])c1ccc(C(C)(O)C(F)(F)F)cc1-c1cnc2c(N)nc(C(=O)NCC(C)(C)O)cn12 (centres unmarked) and give its measured IC50.
< 100 nM

----------
Measured IC50 values are reported for all entries that follow.
# measuredTarget: PI3Kδ (p110δ/p85α) Recombinant Human Protein (Homo sapiens (Human), UniProt O00329)
# runDescription: PI3Kδ scintillation proximity assay
# Assay type: biochemical
# conditionNotes: 20 μM PIP2, 2 μM ATP, 3.4 nM PI3Kδ, 120 min, room temperature; read-out: PI3Kδ IC50
Where a name gives a salt, the structure may show the parent alone.

Below are worked cases with known answers.
CNCCC(O)(c1ccc(C)c(-c2cnc3c(N)nc(C(F)(F)F)cn23)c1)C(F)(F)F (single isomer, unassigned) [Example 16] :: 100 to 500 nM
Cc1ccc(C(O)(C(N)=O)C(F)(F)F)cc1-c1cnc2c(N)nc(C(=O)NC34CC(F)(C3)C4)cn12 (stereo not drawn) [Example 288, trifluoroacetate salt] :: 100 to 500 nM
CNC(=O)C(O)(c1ccc(C)c(-c2cnc3c(N)nc(C(F)(F)F)cn23)c1)C(F)(F)F (stereo not drawn) :: < 100 nM

Enter reported IC50 observed with PI3Kδ (p110δ/p85α) Recombinant Human Protein (Homo sapiens (Human), UniProt O00329) for [2H]C([2H])([2H])NC(=O)C(O)(c1ccc(C)c(-c2cnc3c(N)nc(C(=O)NC(CC#N)C(F)(F)F)cn23)c1)C(F)(F)F (stereo not drawn) [Example 289, trifluoroacetate salt]
100 to 500 nM

Which measured IC50 belongs to Cc1ccc(C(C)(O)C(F)(F)F)cc1-c1cnc2c(N)nc(C(F)(F)F)cn12 (stereo not drawn) [Example 4] , tested on PI3Kδ (p110δ/p85α) Recombinant Human Protein (Homo sapiens (Human), UniProt O00329)?
100 to 500 nM

What reported IC50 corresponds to Cc1ccc(C(O)(CNC(=O)c2ccccc2)C(F)(F)F)cc1-c1cnc2c(N)nc(C(F)(F)F)cn12 (stereo not drawn) [Example 212, trifluoroacetate salt] on PI3Kδ (p110δ/p85α) Recombinant Human Protein (Homo sapiens (Human), UniProt O00329)?
100 to 500 nM

----------
# measuredTarget: PI3Kδ (p110δ/p85α) Recombinant Human Protein (Homo sapiens (Human), UniProt O00329)
# runDescription: PI3Kδ scintillation proximity assay
# Format: biochemical
# conditionNotes: 20 μM PIP2, 2 μM ATP, 3.4 nM PI3Kδ, 120 min, room temperature; read-out: PI3Kδ IC50
Where a name gives a salt, the structure may show the parent alone.
endpointName: IC50

[2H]C([2H])([2H])n1nccc1-c1cn2c(-c3cc(C(O)(CO)C(F)(F)F)ccc3C)cnc2c(N)n1 (single isomer, unassigned) [Example 67, trifluoroacetate salt] :: 100 to 500 nM
Cc1ccc(C(C)(O)C(F)(F)C(F)(F)F)cc1-c1cnc2c(N)nc(C(F)(F)F)cn12 (single isomer, unassigned) [Example 60] :: 500 to 2000 nM
Cc1ccc(C(C)(O)C(F)(F)F)cc1-c1cnc2c(N)nc(N3CCC(O)CC3)cn12 (stereo not drawn) :: 100 to 500 nM

// IC50 lookup, key: Cc1ccc(C(O)(CNC(=O)CF)C(F)(F)F)cc1-c1cnc2c(N)nc(C(F)(F)F)cn12 (stereo not drawn) [Example 214, trifluoroacetate salt]
100 to 500 nM

GET /values?readout=IC50&item= Cc1ccc(C(C)(O)C(F)F)cc1-c1cnc2c(N)nc(-c3c(C)cnn3C)cn12 (stereo not drawn)
100 to 500 nM

Quick one: IC50 for CCC(O)(c1ccc(C)c(-c2cnc3c(N)nc(-c4ccnn4C)cn23)c1)C(F)F (stereo not drawn) [Example 50, trifluoroacetate] ?
100 to 500 nM

----------
Listed here are compounds together with their documented pIC50.
# measuredTarget: PI3Kγ (p110γ) Recombinant Human Protein (Homo sapiens (Human), UniProt P48736)
# Sequence (P48736 whole entry): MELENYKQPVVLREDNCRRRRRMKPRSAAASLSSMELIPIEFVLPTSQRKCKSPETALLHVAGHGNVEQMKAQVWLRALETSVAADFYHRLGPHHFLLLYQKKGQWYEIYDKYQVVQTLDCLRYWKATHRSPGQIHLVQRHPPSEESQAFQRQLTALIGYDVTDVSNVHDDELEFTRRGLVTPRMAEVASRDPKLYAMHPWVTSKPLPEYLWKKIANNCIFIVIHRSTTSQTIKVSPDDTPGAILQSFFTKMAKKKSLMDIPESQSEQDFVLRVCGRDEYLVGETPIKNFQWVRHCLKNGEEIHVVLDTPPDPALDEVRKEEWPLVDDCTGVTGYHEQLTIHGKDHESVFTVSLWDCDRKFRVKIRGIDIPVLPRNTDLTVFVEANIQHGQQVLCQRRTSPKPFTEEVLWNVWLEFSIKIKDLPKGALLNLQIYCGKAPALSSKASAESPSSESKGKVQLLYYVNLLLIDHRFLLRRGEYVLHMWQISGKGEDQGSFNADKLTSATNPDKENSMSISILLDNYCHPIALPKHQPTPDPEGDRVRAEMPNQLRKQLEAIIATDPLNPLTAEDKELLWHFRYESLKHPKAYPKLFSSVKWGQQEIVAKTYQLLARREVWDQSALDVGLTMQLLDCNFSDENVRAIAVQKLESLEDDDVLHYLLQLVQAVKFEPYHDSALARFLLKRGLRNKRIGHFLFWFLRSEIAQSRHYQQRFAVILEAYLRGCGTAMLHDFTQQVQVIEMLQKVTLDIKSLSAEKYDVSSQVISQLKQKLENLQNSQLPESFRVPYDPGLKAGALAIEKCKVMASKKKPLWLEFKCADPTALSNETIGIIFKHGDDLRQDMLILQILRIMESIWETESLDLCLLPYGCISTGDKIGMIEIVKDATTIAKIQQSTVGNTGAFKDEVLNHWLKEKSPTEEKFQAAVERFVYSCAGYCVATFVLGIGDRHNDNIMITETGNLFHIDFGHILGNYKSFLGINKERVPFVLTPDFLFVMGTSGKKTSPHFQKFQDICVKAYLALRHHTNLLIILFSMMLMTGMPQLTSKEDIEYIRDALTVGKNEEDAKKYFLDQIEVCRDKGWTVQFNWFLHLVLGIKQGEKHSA
# runDescription: PI3K-γ scintillation proximity assay
# conditionNotes: 20 μM PIP2, 2 μM ATP, 13 nM PI3Kγ, 120 min, room temperature
pIC50: −log10 of the molar value.

Worked cases, pIC50 given:
Cc1ccc(C(C)(O)C(F)(F)C(F)(F)F)cc1-c1cnc2c(N)nc(C(F)(F)F)cn12 (single isomer, unassigned) [Example 60] :: > 7.00
Cc1cc(F)c(C(C)(O)C(F)(F)F)cc1-c1cnc2c(N)nc(C(F)(F)F)cn12 (stereo not shown) :: > 7.00

Look up pIC50 for this compound: Cc1ccc(C(C)(O)C(F)(F)F)cc1-c1cnc2c(N)nc(-c3ccnc(CO)c3)cn12 (single isomer, unassigned) [Example 12]
> 7.00

Look at this compound and give its reported pIC50. CC(O)(c1cc(-c2cnc3c(N)nc(C(F)(F)F)cn23)ccc1F)C(F)(F)F (stereo not shown)
> 7.00

Name the recorded pIC50 for Cc1ccc(C(O)(C(N)=O)C(F)(F)F)cc1-c1cnc2c(N)nc(C(=O)NC3CCOCC3)cn12 (stereo not shown) .
> 7.00

Which measured pIC50 value corresponds to Cc1ccc(C(C)(O)C(F)(F)Cl)cc1-c1cnc2c(N)nc(C(F)(F)F)cn12 (stereo not shown) ?
> 7.00
